Reference source: ChEMBL document CHEMBL1961873

Measured inhibition by item
system: Platelet-derived growth factor receptor alpha (Homo sapiens), P16234 [V561D]; details: at 0.1 µM
Sequence (P16234 whole entry V561D): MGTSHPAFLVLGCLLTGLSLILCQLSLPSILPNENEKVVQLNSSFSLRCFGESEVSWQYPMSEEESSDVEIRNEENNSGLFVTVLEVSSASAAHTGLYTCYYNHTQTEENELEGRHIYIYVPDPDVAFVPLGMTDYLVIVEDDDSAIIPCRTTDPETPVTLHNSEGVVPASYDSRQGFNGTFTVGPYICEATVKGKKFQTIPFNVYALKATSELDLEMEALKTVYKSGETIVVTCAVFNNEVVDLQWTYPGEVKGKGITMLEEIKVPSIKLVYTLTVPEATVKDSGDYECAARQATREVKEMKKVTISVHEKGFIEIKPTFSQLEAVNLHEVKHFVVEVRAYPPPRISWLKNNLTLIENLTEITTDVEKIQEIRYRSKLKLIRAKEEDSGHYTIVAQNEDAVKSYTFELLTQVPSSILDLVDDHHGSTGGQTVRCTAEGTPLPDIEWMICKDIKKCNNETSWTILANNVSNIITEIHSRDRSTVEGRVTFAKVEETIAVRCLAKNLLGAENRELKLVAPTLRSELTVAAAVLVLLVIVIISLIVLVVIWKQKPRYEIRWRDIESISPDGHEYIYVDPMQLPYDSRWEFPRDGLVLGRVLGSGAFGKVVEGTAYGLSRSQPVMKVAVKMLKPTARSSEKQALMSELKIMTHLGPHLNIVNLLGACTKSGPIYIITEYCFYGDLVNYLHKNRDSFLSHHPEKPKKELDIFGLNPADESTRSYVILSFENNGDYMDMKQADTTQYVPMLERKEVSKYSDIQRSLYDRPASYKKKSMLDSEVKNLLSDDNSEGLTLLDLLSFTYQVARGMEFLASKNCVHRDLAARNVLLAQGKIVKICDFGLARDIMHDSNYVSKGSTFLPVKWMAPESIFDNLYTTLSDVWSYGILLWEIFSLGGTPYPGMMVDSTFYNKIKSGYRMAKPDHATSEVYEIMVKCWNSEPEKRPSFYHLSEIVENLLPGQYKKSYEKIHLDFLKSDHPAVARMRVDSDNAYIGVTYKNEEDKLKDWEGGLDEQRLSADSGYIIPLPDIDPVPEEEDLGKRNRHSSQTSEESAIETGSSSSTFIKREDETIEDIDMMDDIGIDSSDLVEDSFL
Number only, in %; omit the unit.

QUERY: Given Cc1nnc(-c2ccc(C)c(-c3ccc(C(=O)NCc4ccc(Cl)cc4)cc3)c2)o1 , respond with its inhibition.
RESULT: 1.34

QUERY: Return reported inhibition. Input molecule: NS(=O)(=O)c1ccc(N/N=C2\C(=O)Nc3ccc(C(=O)NCCCn4ccnc4)cc32)cc1
RESULT: 11.6

QUERY: Could you please provide reported inhibition for CCc1nccc2c1nc(-c1nonc1N)n2CC ? Thanks!
RESULT: 0.72

QUERY: For O=C(Nc1n[nH]c2nc(-c3ccc(O)cc3)c(Br)cc12)C1CC1 , write its inhibition.
RESULT: 19.7

QUERY: Look up and state reported inhibition for COc1cccc(-n2cnc3c(N/N=C/c4ccncc4)ncnc32)c1
RESULT: 10.3

QUERY: In one line, give reported inhibition of the entry COc1cc(N2CCN(C(C)C)CC2)ccc1Nc1nc(Nc2ccc(F)cc2C(=O)NC[C@@H](O)CO)c2cc[nH]c2n1 .
RESULT: 4.51

New cases:
QUERY: Supply recorded inhibition for COc1cc(Nc2ncc3c(C)nc(-c4cccc(Oc5ccccc5)c4)n3n2)cc(OC)c1OC here.
RESULT: 1.43
